System: JNK2
Construct: gene MAPK9
Conditions: Compound Concentration (nM):1000;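 also: KINOMEscan scanMAX binding as percent activity remaining versus control; lower means stronger binding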
recorded-endpoint: Percent Control (%)
The reply should be a number in %, with the unit left off.

Consider the following illustrative entries.
{"compound": "CCc1ccc(Oc2nccc(-c3c(-c4ccc(F)cc4)ncn3C3CCNCC3)n2)cc1", "recorded-endpoint": "Percent Control", "result-unit": "%", "assay-result": 15}
{"compound": "Cl.O=S1CCN(Cc2ccc(-c3ccc4ncnc(Nc5ccc(OCc6ccccc6)c(F)c5)c4c3)o2)CC1 [GW576924A]", "recorded-endpoint": "Percent Control", "result-unit": "%", "assay-result": 100}
{"compound": "CC(C)COC(=O)c1ccc2c(c1)/C(=C/Nc1ccc(S(N)(=O)=O)cc1)C(=O)N2 [GW416981X]", "recorded-endpoint": "Percent Control", "result-unit": "%", "assay-result": 65}
{"compound": "COC(=O)Nc1nc2ccc(Oc3ccc(NC(=O)Nc4cc(C(F)(F)F)ccc4F)cc3)cc2s1.Cl [GW693917A]", "recorded-endpoint": "Percent Control", "result-unit": "%", "assay-result": 60}
{"compound": "CCS(=O)(=O)c1ccc(OC)c(Nc2ncc(-c3cccc(F)c3)o2)c1 [GW621970X]", "recorded-endpoint": "Percent Control", "result-unit": "%", "assay-result": 92}

Value of Percent Control reported for the compound COc1cc(C)c(N(C)C(=O)CN(C)C)cc1Nc1nc(Nc2cccc(F)c2C(N)=O)c2cc[nH]c2n1 is 74

Value of Percent Control reported for the compound Cl.c1ccc(Cc2nc3ccc(Nc4ncnc5ccccc45)cc3[nH]2)cc1 [GR269666A] is 100

Value of Percent Control reported for the compound C[C@@H](Oc1cc(-n2cnc3ccc(OC4CCN(C)CC4)cc32)sc1C(N)=O)c1ccccc1Cl [GSK579289A] is 98

###

molecules and their reported Percent Control
Test system: MAP4K5
Conditions: Compound Concentration (nM):1000
The reply should be a number in %, with the unit left off.

Consider the following illustrative entries.
{"molecule": "COc1cccc(-n2ncc3c(N/N=C/c4ccncc4)ncnc32)c1 [GW784752X]", "recorded-endpoint": "Percent Control", "assay-result": 100}
{"molecule": "CC1=C(C(=O)Nc2ccc3[nH]ncc3c2)C(c2ccc(Cl)c(Cl)c2)CC(=O)N1 (stereo not drawn) [GSK299115A]", "recorded-endpoint": "Percent Control", "assay-result": 75}

Tested on MAP4K5, the item COc1cc(C)c(N(C)C(=O)CN(C)C)cc1Nc1nc(Nc2cccc(F)c2C(N)=O)c2cc[nH]c2n1 [GSK2219385] showed Percent Control equal to 100

###

Tested on: AURKA
Details: Compound Concentration (nM):1000
recorded-endpoint: Percent Control (%)
The reply should be a number in %, with the unit left off.

{"compound": "COC(=O)Nc1nc2ccc(Oc3ccc(NC(=O)Nc4cc(C(F)(F)F)ccc4F)cc3)cc2s1.Cl [GW693917A]", "result-unit": "%", "Percent Control": 71}

Value of Percent Control reported for the compound COc1ccc2cc(-c3c(-c4ccncc4)nc(-c4ccc(S(C)(=O)=O)cc4C)n3C)ccc2c1 is 87

Value of Percent Control reported for the compound CN(C)CCNC(=O)Nc1ccc(N(C)c2ccnc(Nc3ccc(CS(C)(=O)=O)cc3)n2)cc1.Cl [GW830900A] is 8.8

Value of Percent Control reported for the compound COc1cccc(-c2c[nH]c3c(N/N=C/c4ccncc4)ncnc23)c1 [GW814408X] is 82

Value of Percent Control reported for the compound NS(=O)(=O)c1ccc(N/N=C2\C(=O)Nc3ccc(C(=O)NCCc4c[nH]cn4)cc32)cc1 [GW300660X] is 72

Value of Percent Control reported for the compound CCS(=O)(=O)c1ccc(OC)c(Nc2ncc(-c3cccc(OC)c3)o2)c1 [GW580509X] is 88

Value of Percent Control reported for the compound Nc1ncnc2occ(-c3ccc(NC(=O)Nc4cc(C(F)(F)F)ccc4F)cc3)c12 [GW770249X] is 66

Value of Percent Control reported for the compound Cl.O=C(Nc1ccc(Oc2ccc3[nH]c(NC(=O)c4ccccc4)nc3c2)cc1)Nc1cc(C(F)(F)F)ccc1F [GW709042A] is 82

###

Tested on: FLT1
Settings: Compound Concentration (nM):1000
recorded-endpoint: Percent Control (%)
The reply should be a number in %, with the unit left off.

Consider the following illustrative entries.
{"molecule": "COc1cc(C)c(N(C)C(=O)CN(C)C)cc1Nc1nc(Nc2cccc(F)c2C(N)=O)c2cc[nH]c2n1 [GSK2219385]", "tested-target": "FLT1", "result-unit": "%", "Percent Control": 96}
{"molecule": "Cl.O=S1CCN(Cc2ccc(-c3ccc4ncnc(Nc5ccc(OCc6ccccc6)c(F)c5)c4c3)o2)CC1 [GW576924A]", "tested-target": "FLT1", "result-unit": "%", "Percent Control": 100}
{"molecule": "COc1ccccc1-c1cc(/C=C2\\C(=O)Nc3ncc(Br)cc32)cc(Br)c1O [GW442130X]", "tested-target": "FLT1", "result-unit": "%", "Percent Control": 100}
{"molecule": "NS(=O)(=O)c1ccc(N/N=C2\\C(=O)Nc3ccc(C(=O)NCc4ccncc4)cc32)cc1 [GW300657X]", "tested-target": "FLT1", "result-unit": "%", "Percent Control": 80}
{"molecule": "C/C(Nc1ccc(S(N)(=O)=O)cc1)=C1/C(=O)Nc2ccccc21 [GW335962X]", "tested-target": "FLT1", "result-unit": "%", "Percent Control": 100}

Value of Percent Control reported for the molecule Cl.O=C(Nc1ccc(Oc2ccc3[nH]c(NC(=O)c4ccccc4)nc3c2)cc1)Nc1cc(C(F)(F)F)ccc1F [GW709042A] is 5.1

Value of Percent Control reported for the molecule CN(C)c1cc2c(Nc3ccc4c(cnn4Cc4ccccc4)c3)ncnc2cn1 [GW282974X] is 94

###

compounds and their reported Percent Control
System: EGFR(T790M)
Settings: Compound Concentration (nM):1000
The reply should be a number in %, with the unit left off.

Consider the following illustrative entries.
{"compound": "O=C(Nc1n[nH]c2nc(-c3ccc(O)cc3)c(Br)cc12)C1CC1 [SB-725317]", "result-unit": "%", "assay-result": 96}
{"compound": "CN1CCN(C(=O)c2ccc(NC(=O)Nc3ccc(N(C)c4ccnc(Nc5ccc(CS(C)(=O)=O)cc5)n4)cc3)cc2)CC1.Cl [GW830263A]", "result-unit": "%", "assay-result": 54}
{"compound": "CC1=C(C(=O)Nc2ccc3[nH]ncc3c2)C(c2ccc(Cl)c(Cl)c2)CC(=O)N1 (stereo not shown) [GSK299115A]", "result-unit": "%", "assay-result": 77}
{"compound": "Cl.c1ccc(Cc2nc3ccc(Nc4ncnc5ccccc45)cc3[nH]2)cc1 [GR269666A]", "result-unit": "%", "assay-result": 100}
{"compound": "CCS(=O)(=O)c1ccc(OC)c(Nc2ncc(-c3cccc(F)c3)o2)c1 [GW621970X]", "result-unit": "%", "assay-result": 100}
{"compound": "Cl.O=S1CCN(Cc2ccc(-c3ccc4ncnc(Nc5ccc(OCc6ccccc6)c(F)c5)c4c3)o2)CC1 [GW576924A]", "result-unit": "%", "assay-result": 46}

Value of Percent Control reported for the compound Cl.O=C(Nc1ccc(Oc2ccc3[nH]c(NC(=O)c4ccco4)nc3c2)cc1)Nc1cc(C(F)(F)F)ccc1F [GW683134A] is 84

Value of Percent Control reported for the compound Cc1cc(O)cc(C)c1/C=C/c1cncc(C(N)=O)c1 [GW435821X] is 94

Value of Percent Control reported for the compound O=C1Nc2ccc(C(=O)c3ccco3)cc2C1=Cc1cc(Cl)c(O)c(Cl)c1 [GW406108X] is 77

Value of Percent Control reported for the compound COc1ccccc1-c1cc(/C=C2\C(=O)Nc3ncc(Br)cc32)cc(Br)c1O [GW442130X] is 72

Value of Percent Control reported for the compound COc1cc(C=NNc2ncnc3c2cnn3-c2ccccc2)ccc1O [GW513184X] is 82

Value of Percent Control reported for the compound COc1cc2ncnc(Nc3ccc4c(cnn4Cc4ccccc4)c3)c2cc1OC.Cl [GW282449A] is 7.2

###

Tested on: PIK3C2G
Conditions: Compound Concentration (nM):1000
compounds and their reported Percent Control
The reply should be a number in %, with the unit left off.

Consider the following illustrative entries.
{"compound": "CN(C)c1cc2c(Nc3ccc4c(cnn4Cc4ccccc4)c3)ncnc2cn1 [GW282974X]", "Percent Control / %": 89}
{"compound": "CN(C)CCNC(=O)Nc1ccc(N(C)c2ccnc(Nc3ccc(CS(C)(=O)=O)cc3)n2)cc1.Cl [GW830900A]", "Percent Control / %": 95}
{"compound": "COc1ccccc1-c1cc(/C=C2\\C(=O)Nc3ncc(Br)cc32)cc(Br)c1O [GW442130X]", "Percent Control / %": 87}

Tested on PIK3C2G, the item Cl.O=C(Nc1ccc(Oc2ccc3[nH]c(NC(=O)c4ccco4)nc3c2)cc1)Nc1cc(C(F)(F)F)ccc1F [GW683134A] showed Percent Control equal to 83

Tested on PIK3C2G, the item COc1ccc2[nH]c3c4[nH]c5ccc(OC)cc5c4c4c(c3c2c1)C(=O)NC4=O [GW296115X] showed Percent Control equal to 76

Tested on PIK3C2G, the item Cl.O=S1CCN(Cc2ccc(-c3ccc4ncnc(Nc5ccc(OCc6ccccc6)c(F)c5)c4c3)o2)CC1 [GW576924A] showed Percent Control equal to 78

Tested on PIK3C2G, the item COc1cccc(-n2ncc3c(N/N=C/c4ccncc4)ncnc32)c1 [GW784752X] showed Percent Control equal to 98

Tested on PIK3C2G, the item CCn1c(-c2nonc2N)nc2c(C#CC(C)(C)O)nc(OCCNC)cc21.Cl [GSK949675] showed Percent Control equal to 100
